Reference for the values: ChEMBL document CHEMBL4689842

For each record, write down the corresponding Population Hoechst High Intensity Objects (%).
system: HEK-293T; assay: Multiplex assay against HEK293T; type: toxicity, cell-based; conditions: human, 24 h, 10 µM, compound concentration 10 uM, replicate 2

Query block: # lookup: Population Hoechst High Intensity Objects (%) of Nc1ccc(C(=O)Nc2cccc(-c3nc(N4CCOCC4)c4oc5ncccc5c4n3)c2)cn1
Result block: 8%

Query block: Same question for Cc1cc2c(cc1N1C(=O)c3cccc4c(CCCO)ccc(c34)C1=O)n(C)c(=O)n2C please.
Result block: 3%

Query block: Same question for COc1cc2c(Nc3ccc(NC(=O)c4ccccc4)cc3)ncnc2cc1OCCCN1CCOCC1 please.
Result block: 4%

Query block: Same question for CNC(=O)c1cc(Oc2ccc(NC(=O)Nc3cc(C(C)(C)C)nn3-c3ccc4ncccc4c3)c(F)c2)ccn1 please.
Result block: 5%

###

system: Fibroblast; assay: Multiplex assay against human fibroblast; type: toxicity, cell-based; conditions: 48 h, 1 µM, compound concentration 1 uM, replicate 2
For each record, write down the corresponding Population Hoechst High Intensity Objects (%).
Report the figure in % without appending any unit label.

Query block: # lookup: Population Hoechst High Intensity Objects (%) of COc1ccc(NS(=O)(=O)c2sc3ccc(Cl)cc3c2C)cc1N1CCNCC1.Cl
Result block: 25

Query block: Same question for CC(C)N1CCC(C)(C)c2cc(C#Cc3ccc(C(=O)O)cc3)ccc21 please.
Result block: 35

Query block: Same question for Nc1ccc(C(=O)Nc2cccc(-c3nc(N4CCOCC4)c4oc5ncccc5c4n3)c2)cn1 please.
Result block: 25

Query block: Same question for CCc1cc2c(cc1CC)CC(NC[C@H](O)c1ccc(O)c3[nH]c(=O)ccc13)C2 please.
Result block: 15

Query block: Same question for COc1cc2c(NC3CCN(C(C)C)CC3)nc(N3CCC(F)(F)CC3)nc2cc1OCCCN1CCCC1 please.
Result block: 34

Query block: Same question for Cl.Cl.Nc1ncnc2c1c(-c1cccc(OCc3ccccc3)c1)cn2[C@H]1C[C@@H](CN2CCC2)C1 please.
Result block: 22

Query block: Same question for Cc1cc2c(cc1N1C(=O)c3cccc4c(CCCO)ccc(c34)C1=O)n(C)c(=O)n2C please.
Result block: 9

Query block: Same question for CC(=O)c1cc(-c2cc(C(=O)NC3CC3)ccc2C)c2ncccn12 please.
Result block: 7

Query block: Same question for CNc1oc(-c2cccc3ccccc23)nc1C#N please.
Result block: 78

Query block: Same question for CCn1c(-c2nonc2N)nc2cnc(Oc3cccc(NC(=O)c4ccc(OCCN5CCOCC5)cc4)c3)cc21 [GSK-269962A] please.
Result block: 12

Query block: Same question for O=C(O)c1ccc2cc(-c3ccc(O)c(C45CC6CC(CC(C6)C4)C5)c3)ccc2c1 please.
Result block: 14

Query block: Same question for Cc1nc(Cc2cccc(C(F)(F)F)c2)sc1-c1ccc(C(N)=O)nc1 [TP-024n] please.
Result block: 11

Query block: Same question for CCCn1c(=O)c2[nH]c(C34CC5CC(CC3C5)C4)nc2n(CCC)c1=O please.
Result block: 13

Query block: Same question for CCC(=O)O[C@]1(C(=O)SCF)[C@H](C)C[C@H]2[C@@H]3C[C@H](F)C4=CC(=O)C=C[C@]4(C)[C@@]3(F)[C@@H](O)C[C@@]21C [FLUTICASONE PROPIONATE] please.
Result block: 15

###

tested on: Fibroblast; experiment: Incucyte cell viability with human fibroblast; assay type: toxicity, cell-based; settings: 12 h, 10 µM, compound concentration 10 uM, replicate number 2, timepoint 12 hours; note: filed as whole numbers so only -1 and 0 and 1 occur
assay endpoint: Growth Rate
Give the figure by itself; no unit, no explanation.

Query block: # lookup: Growth Rate of CCCCC[C@H](O)/C=C/[C@@H]1[C@@H](C/C=C\CCCC(=O)O)[C@@H](O)C[C@H]1O [DINOPROST]
Result block: 0

Query block: Same question for COc1ccc(COc2ccc(Cc3cnc(N)nc3N)cc2OC)cc1 [GW632580X] please.
Result block: 0

Query block: Same question for COc1cc(N2CCC(N(C)C)CC2)ccc1Nc1ncc(Cl)c(Nc2ccccc2P(C)(C)=O)n1 please.
Result block: 1

Query block: Same question for Nc1nc(NCc2ccccc2)nc(-c2cccc(CO)c2)n1 [ZINC32547799] please.
Result block: 1

Query block: Same question for CC1(C)CNc2cc(NC(=O)c3cccnc3NCc3ccncc3)ccc21.O=P(O)(O)O.O=P(O)(O)O [MOTESANIB DIPHOSPHATE] please.
Result block: 0

Query block: Same question for CN(C)C(=O)Cn1cc(-c2nc(C3(c4ccc(-c5cnc(N)nc5)cc4)CC3)no2)cn1 [BI 0153] please.
Result block: 1

Query block: Same question for N#Cc1c(N)nc(SCC(N)=O)c(C#N)c1-c1ccc(OCC2CC2)cc1 please.
Result block: 1

Query block: Same question for CCCOc1ccc([C@@H]2[C@@H](C(=O)O)[C@H](c3ccc4c(c3)OCO4)CN2CC(=O)Nc2c(CC)cccc2CC)cc1 [A-1806262] please.
Result block: 0

Query block: Same question for O=C(NCc1ccc(F)cc1)C1CCN(S(=O)(=O)c2cc(Cl)cc(Cl)c2)CC1 please.
Result block: 1

Query block: Same question for CN(C(=O)Cc1ccc(Cl)c(Cl)c1)C(CN1CCCC1)c1cccc(OCC(=O)O)c1.Cl (configuration not stated) please.
Result block: 1

Query block: Same question for CC(C)N1CCC(C)(C)c2cc(C#Cc3ccc(C(=O)O)cc3)ccc21 please.
Result block: 1

Query block: Same question for CN(CCOc1ccc(C[C@H](Nc2ccccc2C(=O)c2ccccc2)C(=O)O)cc1)c1ccccn1.O please.
Result block: 0

Query block: Same question for COc1cccc(CNC(=O)c2nc3scc(CN(C)Cc4ccccc4)c3c(=O)[nH]2)c1 [T-26f] please.
Result block: 1

Query block: Same question for O=C(Nc1cccc2c(=O)cc(-c3nnn[nH]3)oc12)c1ccc(OCCCCc2ccccc2)cc1 please.
Result block: 1

Query block: Same question for Cc1cnc(-c2cc(Cl)ccc2F)cc1-n1c(=O)n(CC(N)=O)c2cnccc21 [TP-008] please.
Result block: 1

Query block: Same question for COc1cccc(OC)c1-c1cc(C(=O)NC2(C(=O)O)C3CC4CC(C3)CC2C4)nn1-c1ccnc2cc(Cl)ccc12 (configuration not stated) [REMINERTANT] please.
Result block: 0

Query block: Same question for Cc1cc2c(cc1N1C(=O)c3cccc4c(CCCO)ccc(c34)C1=O)n(C)c(=O)n2C please.
Result block: 1

Query block: Same question for CCCc1c(-c2ccc(O)cc2)nn(-c2ccc(O)cc2)c1-c1ccc(O)cc1 [PROPYLPYRAZOLETRIOL] please.
Result block: 1

Query block: Same question for COc1cc2c(cc1-c1c(C)noc1C)ncc1[nH]c(=O)n([C@H](C)c3ccccn3)c12 please.
Result block: 0

Query block: Same question for CC(C)NCC(O)c1ccc(N)c(C#N)c1 (configuration not stated) [CIMATEROL] please.
Result block: 1

Query block: Same question for CC(C)Oc1ccc(-c2nn([C@@H](C)c3oc4ccc(F)cc4c(=O)c3-c3cccc(F)c3)c3ncnc(N)c23)cc1F [UMBRALISIB] please.
Result block: 0

Query block: Same question for Cc1cc(C)cc(C(=O)N(C)[C@H](Cc2ccc(-c3ccccc3)cc2)C(=O)N[C@@H](Cc2c[nH]c3ccccc23)C(=O)O)c1 please.
Result block: 1

###

system: Fibroblast; assay: Multiplex assay against human fibroblast; format: toxicity, cell-based; details: 12 h, 10 µM, compound concentration 10 uM, replicate 2
For each record, write down the corresponding Population Pyknosed Nuclei (%).

Query block: # lookup: Population Pyknosed Nuclei (%) of O=C(O)c1ccc2cc(-c3ccc(O)c(C45CC6CC(CC(C6)C4)C5)c3)ccc2c1
Result block: 1%

Query block: Same question for N#Cc1cnc(Nc2cc(NC[C@H]3CNCCO3)c(C(F)(F)F)cn2)cn1 please.
Result block: 14%

Query block: Same question for CN(C)C/C=C/C(=O)Nc1cc2c(Nc3ccc(F)c(Cl)c3)ncnc2cc1O[C@H]1CCOC1.O=C(O)/C=C\C(=O)O.O=C(O)/C=C\C(=O)O [AFATINIB DIMALEATE] please.
Result block: 13%

Query block: Same question for CCC(=O)O[C@]1(C(=O)SCF)[C@H](C)C[C@H]2[C@@H]3C[C@H](F)C4=CC(=O)C=C[C@]4(C)[C@@]3(F)[C@@H](O)C[C@@]21C [FLUTICASONE PROPIONATE] please.
Result block: 10%

Query block: Same question for COc1ccc(NS(=O)(=O)c2sc3ccc(Cl)cc3c2C)cc1N1CCNCC1.Cl please.
Result block: 29%

Query block: Same question for CC(=O)c1cc(-c2cc(C(=O)NC3CC3)ccc2C)c2ncccn12 please.
Result block: 5%

Query block: Same question for CNc1oc(-c2cccc3ccccc23)nc1C#N please.
Result block: 28%

Query block: Same question for COc1cc2c(Nc3ccc(NC(=O)c4ccccc4)cc3)ncnc2cc1OCCCN1CCOCC1 please.
Result block: 2%
